# MEASURED_TARGET: Human recombinant Top1 (Homo sapiens)
# Construct: made in house
# Sequence (P11387 whole entry): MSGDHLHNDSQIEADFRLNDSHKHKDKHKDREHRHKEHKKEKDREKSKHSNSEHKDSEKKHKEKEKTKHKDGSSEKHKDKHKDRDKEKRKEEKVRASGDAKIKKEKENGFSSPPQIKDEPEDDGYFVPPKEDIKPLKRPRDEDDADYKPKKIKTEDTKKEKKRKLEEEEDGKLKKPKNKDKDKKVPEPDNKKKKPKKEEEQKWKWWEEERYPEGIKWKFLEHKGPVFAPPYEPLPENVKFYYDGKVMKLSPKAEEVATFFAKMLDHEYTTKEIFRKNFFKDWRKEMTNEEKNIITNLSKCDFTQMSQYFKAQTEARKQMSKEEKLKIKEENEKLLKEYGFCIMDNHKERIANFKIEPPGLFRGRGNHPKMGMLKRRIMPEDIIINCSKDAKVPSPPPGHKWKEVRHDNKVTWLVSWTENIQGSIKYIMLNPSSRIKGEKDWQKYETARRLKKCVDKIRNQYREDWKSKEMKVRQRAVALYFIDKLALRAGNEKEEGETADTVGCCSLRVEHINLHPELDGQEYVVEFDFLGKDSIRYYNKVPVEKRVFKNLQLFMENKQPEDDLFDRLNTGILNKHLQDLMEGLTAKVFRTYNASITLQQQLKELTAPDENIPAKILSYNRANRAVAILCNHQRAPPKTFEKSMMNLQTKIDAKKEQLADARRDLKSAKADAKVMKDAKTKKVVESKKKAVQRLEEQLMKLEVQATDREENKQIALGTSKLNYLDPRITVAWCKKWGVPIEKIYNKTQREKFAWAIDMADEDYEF
# MEASUREMENT_PROTOCOL: Topoisomerase 1-mediated DNA cleavage reactions (B), 117-bp DNA oligonucleotide
# Assay type: biochemical
# Set-up: key: 0, no detectable activity; +, weak activity; ++, similar activity to compound 5; +++, greater activity than 34; ++++ , equipotent to 32; The (+) ranking indicates the activity lies between two given values
# RECORDED_CONDITIONS: Table 5; semiquantitative scale relative to 1 μM camptothecin (32) or MJ-III-65 (34)
# Procedure: Human recombinant Top1 was purified from baculovirus as described in Bailly, C. Curr. Med. Chem. 2000, 7, 39-58. DNA cleavage reactions were prepared as previously reported with the exception of the DNA substrate in Saltz, et al. Oncologist 1997, 2, 402-409. […]
QUANTITY: Top1 (compound-induced DNA cleavage due to Top1 inhibition)

1) C=CCOc1cc2c3c(n(CCCN4CCOCC4)c(=O)c2cc1OC)-c1cc2c(cc1C3=O)OCO2 [Compound 20] | +
2) COc1cc2c(=O)n(CCCN3CCOCC3)c3c(c2cc1OCC(=O)NN)C(O)c1cc2c(cc1-3)OCO2 (stereo not drawn) [Compound 31] | +
3) COc1cc2c(=O)n(CCCN3CCOCC3)c3c(c2cc1OCCCN1CCN(C)CC1)C(=O)c1cc2c(cc1-3)OCO2 [Compound 26] | +++
4) CCNCCCOc1cc2c3c(n(CCCN4CCOCC4)c(=O)c2cc1OC)-c1cc2c(cc1C3=O)OCO2 [Compound 24] | +++
5) COc1cc2c(=O)n(CCCN3CCOCC3)c3c(c2cc1OCCCN1CCCC1)C(=O)c1cc2c(cc1-3)OCO2 [Compound 28] | ++
6) COC(=O)COc1cc2c3c(n(CCCN4CCOCC4)c(=O)c2cc1OC)-c1cc2c(cc1C3=O)OCO2 [Compound 29] | ++
7) COc1cc2c(=O)n(CCCN3CCOCC3)c3c(c2cc1OCCCN1CCOCC1)C(=O)c1cc2c(cc1-3)OCO2 [Compound 25] | +++
8) COc1cc2c(=O)n(CCCN3CCOCC3)c3c(c2cc1OCCCN1CCCCC1)C(=O)c1cc2c(cc1-3)OCO2 [Compound 27] | +++
9) COc1cc2c(=O)n(CCCN3CCOCC3)c3c(c2cc1OCCCN(C)C)C(=O)c1cc2c(cc1-3)OCO2 [Compound 23] | +++

###

# System: prostate DU-145
# MEASUREMENT_PROTOCOL: COMPARE screening (NCI human cancer cell line screen), cytotoxicity GI50
# Format: cell-based
QUANTITY: log10 of GI50 (log10 of the value in nM)

1. COc1ccc2c(c1)C(=O)c1c-2n(CCCN(C)C)c(=O)c2ccccc12 | 2.41
2. CC(C)(C)OC(=O)NCCCCCCCCCCCn1c2c(c3ccccc3c1=O)C(=O)c1ccccc1-2 | 4.96
3. COc1ccc2c(c1)C(=O)c1c-2n(CCCI)c(=O)c2cc([N+](=O)[O-])ccc12 | 1.53
4. COc1cc2c3c(n(CCCn4cccn4)c(=O)c2cc1OC)-c1cc2c(cc1C3=O)OCO2 | 2.56
5. COc1ccc2c(c1)C(=O)c1c-2n(CCCCl)c(=O)c2cc([N+](=O)[O-])ccc12 | 1.56
6. O=C1c2ccccc2-c2c1c1ccc([N+](=O)[O-])cc1c(=O)n2CCCn1ccnc1 | 1.23
7. [N-]=[N+]=NCCCn1c2c(c3ccccc3c1=O)C(=O)c1ccccc1-2 | 4.47
8. O=C1c2ccccc2-c2c1c1ccccc1c(=O)n2CCCNCCCn1c2c(c3ccccc3c1=O)C(=O)c1ccccc1-2 [Compound 12c] | 3.00
9. Cl.O=C1c2ccccc2-c2c1c1ccccc1c(=O)n2CCCCNCCCn1c2c(c3ccccc3c1=O)C(=O)c1ccccc1-2 [Compound 14b, Hydrochloride] | 2.46
10. CC(C)(C)OC(=O)NCCCCCCCCCCCCn1c2c(c3ccccc3c1=O)C(=O)c1ccccc1-2 | 4.96
11. COc1cc2c3c(n(CCCN4CCC(N)CC4)c(=O)c2cc1OC)-c1cc2c(cc1C3=O)OCO2.Cl.Cl [Compound 5u, Dihydrochloride] | 2.26
12. O=C(O)C(F)(F)F.O=C(O)C(F)(F)F.O=C(O)C(F)(F)F.O=C1c2ccccc2-c2c1c1ccccc1c(=O)n2CCNCCNCCNCCn1c2c(c3ccccc3c1=O)C(=O)c1ccccc1-2 [Compound 14i] | 2.52
13. CN(C)CCCn1c2c(c3ccccc3c1=O)C(=O)c1ccccc1-2 | 3.12
14. COc1cc2c3c(n(CCCn4cncn4)c(=O)c2cc1OC)-c1cc2c(cc1C3=O)OCO2.Cl [Compound 5n, Hydrochloride] | 1.93
15. COc1cc2c3c(n(CCCN4CCN(CCO)CC4)c(=O)c2cc1OC)-c1cc2c(cc1C3=O)OCO2 | 2.44
16. COc1ccc2c(c1)C(=O)c1c-2n(CCCNCCO)c(=O)c2ccccc12.Cl | 1.74
17. NCCCn1c2c(c3ccccc3c1=O)C(=O)c1ccccc1-2 [Compound S-3, reference compound] | 2.34
